The entries below come with measured Activity values attached.
TARGET_UNDER_TEST: Beta-lactamase CTX-M (Escherichia coli) (UniProt Q9EXV5)
ASSAY_PROTOCOL: Ratio of Kcat to Km of Escherichia coli CTX-M-15 assessed as drug hydrolysis by spectrophotometry relative to cephaloridine
Design: scale not given: the % may be the effect or the level left
Kindly provide the numeric value in % only, without the unit symbol.

Illustrative cases are given below, each with its answer.
Nc1nc(/C(=N/O)C(=O)N[C@@H]2C(=O)N3C(C(=O)O)=C(/C=C4\CCN([C@@H]5CCNC5)C4=O)CS[C@H]23)ns1 : 290
CC1(C)S[C@@H]2[C@H](NC(=O)Cc3ccccc3)C(=O)N2[C@H]1C(=O)O : 110
CO/N=C(\C(=O)N[C@@H]1C(=O)N2C(C(=O)[O-])=C(C[N+]3(C)CCCC3)CS[C@H]12)c1csc(N)n1 : 5.1

Query block: GET /values?readout=Activity&item= CO/N=C(\C(=O)N[C@@H]1C(=O)N2C(C(=O)O)=C(COC(C)=O)CS[C@H]12)c1csc(N)n1
Result block: 140

Query block: What would you report for CC(C)(O/N=C(\C(=O)N[C@@H]1C(=O)N2C(C(=O)[O-])=C(C[n+]3ccccc3)CS[C@H]12)c1csc(N)n1)C(=O)O ?
Result block: 0.37

----------
TARGET_UNDER_TEST: Beta-lactamase (Providencia stuartii) (UniProt O69773)
Sequence (O69773 whole entry): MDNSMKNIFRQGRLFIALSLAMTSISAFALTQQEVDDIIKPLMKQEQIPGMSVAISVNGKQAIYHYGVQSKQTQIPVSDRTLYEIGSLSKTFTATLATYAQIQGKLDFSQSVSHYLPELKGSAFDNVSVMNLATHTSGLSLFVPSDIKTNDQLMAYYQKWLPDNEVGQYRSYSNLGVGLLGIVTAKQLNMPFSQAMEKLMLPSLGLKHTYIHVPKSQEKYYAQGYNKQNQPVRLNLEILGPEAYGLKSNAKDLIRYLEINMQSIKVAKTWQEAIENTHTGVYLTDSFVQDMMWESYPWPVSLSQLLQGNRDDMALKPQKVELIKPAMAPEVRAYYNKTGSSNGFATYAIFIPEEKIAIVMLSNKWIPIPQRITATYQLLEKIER
ASSAY_PROTOCOL: Activity of Providencia stuartii AmpC assessed as drug hydrolysis by spectrophotometry relative to cephaloridine
Set-up: scale not given: the % may be the effect or the level left
The entries below come with measured Activity values attached.
Kindly provide the numeric value in % only, without the unit symbol.

Nc1nc(/C(=N/O)C(=O)N[C@@H]2C(=O)N3C(C(=O)O)=C(/C=C4\CCN([C@@H]5CCNC5)C4=O)CS[C@H]23)ns1 : 0.03
CC(C)(O/N=C(\C(=O)N[C@@H]1C(=O)N2C(C(=O)[O-])=C(C[n+]3ccccc3)CS[C@H]12)c1csc(N)n1)C(=O)O : 0.036
CC1(C)S[C@@H]2[C@H](NC(=O)Cc3ccccc3)C(=O)N2[C@H]1C(=O)O : 0.62

We next turn to a different compound, shown below.
Query block: GET /values?readout=Activity&item= CO/N=C(\C(=O)N[C@@H]1C(=O)N2C(C(=O)[O-])=C(C[N+]3(C)CCCC3)CS[C@H]12)c1csc(N)n1
Result block: 0.57

----------
TARGET_UNDER_TEST: Beta-lactamase (Staphylococcus aureus) (UniProt P00807)
Sequence (P00807 whole entry): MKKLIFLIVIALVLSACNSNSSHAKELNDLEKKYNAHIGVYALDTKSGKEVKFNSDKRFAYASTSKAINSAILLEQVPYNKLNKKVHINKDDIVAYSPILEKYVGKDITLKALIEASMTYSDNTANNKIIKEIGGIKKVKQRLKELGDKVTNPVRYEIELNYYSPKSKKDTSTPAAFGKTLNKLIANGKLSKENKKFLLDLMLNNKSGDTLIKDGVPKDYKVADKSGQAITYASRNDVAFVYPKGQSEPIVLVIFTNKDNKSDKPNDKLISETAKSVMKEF
ASSAY_PROTOCOL: Ratio of Kcat to Km of Staphylococcus aureus betalactamase PC1 assessed as drug hydrolysis by spectrophotometry relative to cephaloridine
Set-up: scale not given: the % may be the effect or the level left
The entries below come with measured Activity values attached.
Quote the value and follow it with the unit of measurement.

Illustrative cases are given below, each with its answer.
CO/N=C(\C(=O)N[C@@H]1C(=O)N2C(C(=O)[O-])=C(C[N+]3(C)CCCC3)CS[C@H]12)c1csc(N)n1 : 2.5%
CC(C)(O/N=C(\C(=O)N[C@@H]1C(=O)N2C(C(=O)[O-])=C(C[n+]3ccccc3)CS[C@H]12)c1csc(N)n1)C(=O)O : 0.92%
CC1(C)S[C@@H]2[C@H](NC(=O)Cc3ccccc3)C(=O)N2[C@H]1C(=O)O : 1.5e+06%

We next turn to a different compound, shown below.
Query block: GET /values?readout=Activity&item= Nc1nc(/C(=N/O)C(=O)N[C@@H]2C(=O)N3C(C(=O)O)=C(/C=C4\CCN([C@@H]5CCNC5)C4=O)CS[C@H]23)ns1
Result block: 24%
